Documented Ret across a set of compounds
Species on record: Rattus norvegicus
test.summary: Open TG-GATES - Regimen: Daily Repeat
Type: toxicity, organism-based, Sprague-Dawley
Set-up: regimen Daily Repeat, gender Male, age 6 weeks
protocol.conditions: in vivo, po, 0 mg/kg, […], tissue Blood, route gavage, dose level Control, time 7 day
Express your answer in %, writing the number without its unit.

Past entries and their recorded results:
Determine its reported Ret: CC(C)(S)[C@@H](N)C(=O)O
5.9

State its Ret for this compound: CN1C(=O)OC(C)(C)C1=O
5.8

Recall and state the measured Ret for CCN1CCCC1CNC(=O)c1cc(S(N)(=O)=O)ccc1OC (stereo not given) [SULPIRIDE] .
5.3

For the compound C[C@](N)(Cc1ccc(O)c(O)c1)C(=O)O , give its reported Ret.
6

Continuing:
Give the reported Ret for this compound. C[C@]12CCC(=O)C=C1CC[C@@H]1[C@@H]2CC[C@@]2(C)[C@H]1CC[C@]2(C)O
5.6

Answer with the recorded Ret for the compound listed here: O=C(O)c1cccnc1
5.5

Provide one value: measured Ret of O=C(N[C@H](CO)[C@H](O)c1ccc([N+](=O)[O-])cc1)C(Cl)Cl
5.6

Tell us which Ret value is on record for CC(=O)Oc1cc(C(C)C)c(OCCN(C)C)cc1C
5.1

Please indicate Ret recorded for CCc1oc2ccccc2c1C(=O)c1cc(I)c(O)c(I)c1
4.5

Name the recorded Ret of the compound listed here: Oc1ncnc2[nH]ncc12
4.5

* * *

Organism: Rattus norvegicus
test.summary: Open TG-GATES - Regimen: Daily Repeat
Type: toxicity, organism-based, Sprague-Dawley
Design: regimen Daily Repeat, gender Male, age 6 weeks
protocol.conditions: in vivo, po, 1000 mg/kg, […], tissue Plasma, route gavage, dose level High, time 28 day
reported.property: TBIL (mg/dL)
Report the figure in mg/dL without appending any unit label.

// solved cases for TBIL follow
Give TBIL for the following compound: CC(C)(S)[C@@H](N)C(=O)O [PENICILLAMINE]
0.1

Provide TBIL value for the following compound: CCN1CCCC1CNC(=O)c1cc(S(N)(=O)=O)ccc1OC (centres undefined) [SULPIRIDE]
0.062

Consider the compound O=C(N[C@H](CO)[C@H](O)c1ccc([N+](=O)[O-])cc1)C(Cl)Cl [CHLORAMPHENICOL] and give its recorded TBIL.
0.06

Attention now shifts to the item below.
Tell us which TBIL value is on record for O=C(O)c1cccnc1 [NIACIN]
0.01

* * *

Organism: Rattus norvegicus
test.summary: Open TG-GATES - Regimen: Single
Assay type: toxicity, organism-based, Sprague-Dawley
Parameters: regimen Single, gender Male, age 6 weeks
protocol.conditions: in vivo, po, 0 mg/kg, 24 h, tissue Blood, route gavage, dose level Control
reported.property: APTT (s)
Record the value in s, omitting the unit from your answer.

// worked examples, APTT included
In one line, give reported APTT of the entry CCSCC[C@H](N)C(=O)O [ETHIONINE] .
20.7

Annotate the compound C[C@]12CCC(=O)C=C1CC[C@@H]1[C@@H]2CC[C@@]2(C)[C@H]1CC[C@]2(C)O [METHYLTESTOSTERONE] with its measured APTT.
17.4

***
In one line, give reported APTT of the entry CCN1CCCC1CNC(=O)c1cc(S(N)(=O)=O)ccc1OC (stereo not drawn) [SULPIRIDE] .
17.3
